Origin of measurements: the supplement of paper PMC6555819

- Tested on: RARg homodimer (NR concentration 270 nM)
- protocol-notes: PBM binding z-score (relative to random genomic background probes); higher = stronger binding; sequences stand for … in GC…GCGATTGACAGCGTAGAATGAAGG
property-measured: PBM binding z-score

- sequence-text: "CCTACGGGGCCATTCAGAGGTCATTGATCATATG"
  assayed-system: "RARg homodimer (NR concentration 270 nM)"
  recorded-number: 3.77
- sequence-text: "AGAATGAGGTTACCAAAGATGAGGGAAACGCTTG"
  assayed-system: "RARg homodimer (NR concentration 270 nM)"
  recorded-number: 1.54
- sequence-text: "CTACCAAGGTTAACAAGGTCGTTGATTACTATTC"
  assayed-system: "RARg homodimer (NR concentration 270 nM)"
  recorded-number: 2.39
- sequence-text: "TCTAGTTGGTCCCGGAGGTCACACACGACGGGTA"
  assayed-system: "RARg homodimer (NR concentration 270 nM)"
  recorded-number: 3.7
- sequence-text: "GCGACAGGGGCAAAGCAGGTTACCATAAGGTTGG"
  assayed-system: "RARg homodimer (NR concentration 270 nM)"
  recorded-number: 0.918
- sequence-text: "TTACCAAGGTGAAGGTCTTTGATCCCTCTGTAGA"
  assayed-system: "RARg homodimer (NR concentration 270 nM)"
  recorded-number: 0.513
- sequence-text: "CCGACTGGGGCAGAAAGGTTACCATTCCATCCGG"
  assayed-system: "RARg homodimer (NR concentration 270 nM)"
  recorded-number: 1
- sequence-text: "AGTATGAGGTTATACGTAGATCAGGGAAGAAAGT"
  assayed-system: "RARg homodimer (NR concentration 270 nM)"
  recorded-number: 1.26
- sequence-text: "GTGCCAAGGTGAATAGGTCGTTGATGAGTAGGCG"
  assayed-system: "RARg homodimer (NR concentration 270 nM)"
  recorded-number: 1.46
- sequence-text: "ACTAGTTGGTCAGCTGACGTCACACACAATTCGG"
  assayed-system: "RARg homodimer (NR concentration 270 nM)"
  recorded-number: 0.913
- sequence-text: "GCTAGTTGGTCAGTAAAAGGTAACACACCGGTCG"
  assayed-system: "RARg homodimer (NR concentration 270 nM)"
  recorded-number: 0.741
- sequence-text: "GGAACGAGGGCAAGTTGCTAGCAGAGTTTGATGG"
  assayed-system: "RARg homodimer (NR concentration 270 nM)"
  recorded-number: 2.1
- sequence-text: "ATATGTAGGTTAGCGGGTCATTCAGTTTGCGCAT"
  assayed-system: "RARg homodimer (NR concentration 270 nM)"
  recorded-number: 2.37
- sequence-text: "CCAGACAGGTGAGATGGTAACTCAGCCTCGATTA"
  assayed-system: "RARg homodimer (NR concentration 270 nM)"
  recorded-number: 0.225
- sequence-text: "CAAACTAGGTCACAGAGGTCAAGGTCCGTGCGTA"
  assayed-system: "RARg homodimer (NR concentration 270 nM)"
  recorded-number: 7.73
- sequence-text: "CTACCAAGGTGAACGAGGTCGTTGATTACTATTC"
  assayed-system: "RARg homodimer (NR concentration 270 nM)"
  recorded-number: 1.32
- sequence-text: "GCTTGTAGATCAAGGTTATGAAAGACTAAGCTAA"
  assayed-system: "RARg homodimer (NR concentration 270 nM)"
  recorded-number: 0.25
- sequence-text: "AGTCAAAGTTCAGGACGAGGTAAGGTAAAGCACG"
  assayed-system: "RARg homodimer (NR concentration 270 nM)"
  recorded-number: 4.61
- sequence-text: "ATACCAAGGTGATCGTGAGGTCCTTGATACTAAC"
  assayed-system: "RARg homodimer (NR concentration 270 nM)"
  recorded-number: 0.386
- sequence-text: "CTCGAAAGGTCGTGCTCAGGTGCGTATACCAAAC"
  assayed-system: "RARg homodimer (NR concentration 270 nM)"
  recorded-number: 3.38
- sequence-text: "TAGCCTAGGTCAGATCGGGTCAGTATACGCTATA"
  assayed-system: "RARg homodimer (NR concentration 270 nM)"
  recorded-number: 4.62
- sequence-text: "ACAGACAGGTGAGTGAAGGTAAATCAGCTGGACG"
  assayed-system: "RARg homodimer (NR concentration 270 nM)"
  recorded-number: 0.417
- sequence-text: "TAGCCTAGGTCAGACCGGGCCAGTATACGCTATA"
  assayed-system: "RARg homodimer (NR concentration 270 nM)"
  recorded-number: 3.34
- sequence-text: "CGAACTAGGTTATCCAGGACAGTGAATACATTGA"
  assayed-system: "RARg homodimer (NR concentration 270 nM)"
  recorded-number: 1.04
- sequence-text: "CAAACTAGGTCAAGACGTCAAAGTCCGCTTCCCG"
  assayed-system: "RARg homodimer (NR concentration 270 nM)"
  recorded-number: 4.74
- sequence-text: "AGTCAAAGTGCACTAGGTAACGTAAGATTCAGCT"
  assayed-system: "RARg homodimer (NR concentration 270 nM)"
  recorded-number: 1.26
- sequence-text: "GATACAGGGGCAGCTAGAGGCCAGAGTATGGAAA"
  assayed-system: "RARg homodimer (NR concentration 270 nM)"
  recorded-number: 1.15
- sequence-text: "TGAATGAGGTTATAAGTTCAGGGAACGTTGCAAA"
  assayed-system: "RARg homodimer (NR concentration 270 nM)"
  recorded-number: 2.27
- sequence-text: "TCACATAGGTAAAGGTGAAAGTCGAACGATATGA"
  assayed-system: "RARg homodimer (NR concentration 270 nM)"
  recorded-number: 1.26
- sequence-text: "CCTACTAGTTGACCATAAGGGCAACCGAAGCTCG"
  assayed-system: "RARg homodimer (NR concentration 270 nM)"
  recorded-number: 0.714
- sequence-text: "TCATATAGGTAATACACGTGAAAGTCGGCATCTA"
  assayed-system: "RARg homodimer (NR concentration 270 nM)"
  recorded-number: 0.604
- sequence-text: "CGAACTAGGTCAGACCAGGACAGTGAAGGATGAT"
  assayed-system: "RARg homodimer (NR concentration 270 nM)"
  recorded-number: 3.53
- sequence-text: "AGTGAAAGTTCACTAGGTAACGTAAGATTCAGCT"
  assayed-system: "RARg homodimer (NR concentration 270 nM)"
  recorded-number: 5.32
- sequence-text: "TCTTGTATATCAATAGAGGTTAAGAAAGTGCGCT"
  assayed-system: "RARg homodimer (NR concentration 270 nM)"
  recorded-number: 0.687
- sequence-text: "CAAACTAGGTCACAGATGTCAAAGTCCGTGCGTA"
  assayed-system: "RARg homodimer (NR concentration 270 nM)"
  recorded-number: 4.89
- sequence-text: "TGACCAAGGTGAAAGGTCGTTGATGCACGCCTTG"
  assayed-system: "RARg homodimer (NR concentration 270 nM)"
  recorded-number: 2.09
- sequence-text: "CCGACTGGGGCAGAAAGGCTACCATACCATCCGG"
  assayed-system: "RARg homodimer (NR concentration 270 nM)"
  recorded-number: -0.0697
- sequence-text: "GCTTACGGGTCAACGGTTATAGCATGAATAGAAT"
  assayed-system: "RARg homodimer (NR concentration 270 nM)"
  recorded-number: 4.66
- sequence-text: "AGAACGAGGGCACGCTGAGTTGATAGGAGAGTAG"
  assayed-system: "RARg homodimer (NR concentration 270 nM)"
  recorded-number: 1.99
- sequence-text: "CCTACTGGGCCACGAAATGTCATTGATTCAGTGA"
  assayed-system: "RARg homodimer (NR concentration 270 nM)"
  recorded-number: 0.479
- sequence-text: "ACTAGCAGGCCAAGTTTTGGTCACTCAAACAAAG"
  assayed-system: "RARg homodimer (NR concentration 270 nM)"
  recorded-number: 0.546
- sequence-text: "TACACAGGGTCAAAGGCCAGAGTACGAATGTCGA"
  assayed-system: "RARg homodimer (NR concentration 270 nM)"
  recorded-number: 5.36
- sequence-text: "CGTGCAAGGTCAGCAGGTCAGTGAAAGCGACGTG"
  assayed-system: "RARg homodimer (NR concentration 270 nM)"
  recorded-number: 7.05
- sequence-text: "ACTTACGGGTCAACGAGATTATAGCACGCGTATA"
  assayed-system: "RARg homodimer (NR concentration 270 nM)"
  recorded-number: 4.89
- sequence-text: "CGAACTAGGTCATCCAGGAAAGTGAATACATTGA"
  assayed-system: "RARg homodimer (NR concentration 270 nM)"
  recorded-number: 4.93
- sequence-text: "AGAATGAGGTTATTAAGTTCAGGGAATTGCGGTC"
  assayed-system: "RARg homodimer (NR concentration 270 nM)"
  recorded-number: 1.43
- sequence-text: "TCATATAGGTAAATCCTAGGTGAAAGTCCGATCT"
  assayed-system: "RARg homodimer (NR concentration 270 nM)"
  recorded-number: 0.396
- sequence-text: "AATACAGGGTCACTAGGCCAGTGTAGGTACGAAT"
  assayed-system: "RARg homodimer (NR concentration 270 nM)"
  recorded-number: 5.09
- sequence-text: "ATCTCTAGGTAAAGATAGTACAGTGAATGCAAAT"
  assayed-system: "RARg homodimer (NR concentration 270 nM)"
  recorded-number: 0.707
- sequence-text: "ACTCCGAGGACAAAGGTCAGAGCTACGCCAGTGA"
  assayed-system: "RARg homodimer (NR concentration 270 nM)"
  recorded-number: 5.92
- sequence-text: "CGTCCAAAGTCAGCAGGTCAGTGAAAGCGACGTG"
  assayed-system: "RARg homodimer (NR concentration 270 nM)"
  recorded-number: 1.5
